# target_entity: Ecm22 (UniProt Q05958)
# Sequence: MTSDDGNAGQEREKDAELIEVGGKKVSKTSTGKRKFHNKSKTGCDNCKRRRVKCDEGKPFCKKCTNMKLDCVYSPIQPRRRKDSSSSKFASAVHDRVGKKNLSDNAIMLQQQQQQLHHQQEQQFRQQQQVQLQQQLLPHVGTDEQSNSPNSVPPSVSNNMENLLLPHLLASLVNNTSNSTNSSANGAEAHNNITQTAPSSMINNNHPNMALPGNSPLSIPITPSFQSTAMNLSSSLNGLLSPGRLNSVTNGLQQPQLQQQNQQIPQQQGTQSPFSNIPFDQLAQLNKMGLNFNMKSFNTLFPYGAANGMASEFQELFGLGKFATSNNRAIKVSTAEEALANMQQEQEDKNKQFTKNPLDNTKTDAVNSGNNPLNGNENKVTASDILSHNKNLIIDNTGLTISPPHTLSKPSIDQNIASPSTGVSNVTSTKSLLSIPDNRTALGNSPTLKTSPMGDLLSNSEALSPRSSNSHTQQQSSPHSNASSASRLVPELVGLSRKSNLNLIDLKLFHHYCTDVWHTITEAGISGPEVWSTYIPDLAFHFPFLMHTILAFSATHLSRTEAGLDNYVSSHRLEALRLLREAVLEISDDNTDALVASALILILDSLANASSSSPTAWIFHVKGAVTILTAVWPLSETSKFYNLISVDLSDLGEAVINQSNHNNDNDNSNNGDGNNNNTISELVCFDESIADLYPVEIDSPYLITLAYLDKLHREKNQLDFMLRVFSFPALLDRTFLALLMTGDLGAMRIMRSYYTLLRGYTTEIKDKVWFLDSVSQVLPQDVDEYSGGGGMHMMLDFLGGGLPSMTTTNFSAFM
# assay_protocol: PBM E-score (8-mer binding enrichment) (E-score (-0.5 to 0.5)); higher = stronger / more preferred TF binding
# measurement_context: protein concentration: 200 nM; construct: GST-full length
Whole data set: some 33,000 sequences, median “E-score (-0.5 to 0.5)” near -0.041, cut for the highest 2% near 0.37. The sample as a whole holds a higher share of the highest values than the screen did.
measured_parameter: PBM E-score
Numbers only.

Worked examples, 5 sequences total:
   chain_sequence  experimental_value
0        ACTGTACT               -0.12
1        AACGACCT               0.385
2        CAATCGTC             -0.0527
3        GAAAAGAA              0.0308
4        CCGACGGC               0.129

Hi team, please reply with PBM E-score for each item in this list.
1. GAGTACGA
2. CCTCGGCA
3. GAATCGCA
4. CATACGCG

[0.426, 0.165, -0.0229, 0.269]

Hi team, please reply with PBM E-score for each item in this list.
1. ACGACAAG
2. AGTATGAC
3. AAACGGCT
4. ACGACGGG

[0.334, 0.0876, 0.259, 0.393]

Hi team, please reply with PBM E-score for each item in this list.
1. CTCAACCC
2. TACGGACA
3. TATGATGA
4. TCGACAAA
5. CGTGCGTA

1: -0.14; 2: 0.258; 3: 0.00697; 4: 0.178; 5: 0.233

Hi team, please reply with PBM E-score for each item in this list.
1. CCATACGG
2. TGTGTCAA
3. TAGTACAA

0.345
-0.0896
0.0161

* * *

# target_entity: Ecm22 (UniProt Q05958)
# Sequence: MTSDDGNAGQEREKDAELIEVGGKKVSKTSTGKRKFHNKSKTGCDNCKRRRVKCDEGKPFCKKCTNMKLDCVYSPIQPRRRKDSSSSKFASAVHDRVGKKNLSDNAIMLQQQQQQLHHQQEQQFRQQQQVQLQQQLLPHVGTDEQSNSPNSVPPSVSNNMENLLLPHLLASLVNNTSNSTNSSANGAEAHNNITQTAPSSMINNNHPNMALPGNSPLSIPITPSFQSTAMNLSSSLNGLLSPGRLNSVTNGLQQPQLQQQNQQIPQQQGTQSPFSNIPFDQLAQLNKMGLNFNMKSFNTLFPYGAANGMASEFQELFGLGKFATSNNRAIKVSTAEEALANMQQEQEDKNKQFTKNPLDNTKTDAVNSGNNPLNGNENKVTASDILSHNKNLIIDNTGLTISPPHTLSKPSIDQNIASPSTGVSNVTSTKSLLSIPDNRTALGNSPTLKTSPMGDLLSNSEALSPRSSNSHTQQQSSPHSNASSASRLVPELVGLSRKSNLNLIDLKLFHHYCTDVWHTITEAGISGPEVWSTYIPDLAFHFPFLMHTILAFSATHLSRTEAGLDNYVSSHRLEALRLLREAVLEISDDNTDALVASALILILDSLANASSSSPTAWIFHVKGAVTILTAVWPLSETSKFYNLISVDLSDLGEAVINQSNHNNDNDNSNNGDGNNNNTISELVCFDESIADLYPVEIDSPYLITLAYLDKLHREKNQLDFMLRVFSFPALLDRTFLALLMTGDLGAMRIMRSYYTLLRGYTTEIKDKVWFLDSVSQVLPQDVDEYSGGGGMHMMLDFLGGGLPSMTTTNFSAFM
# assay_protocol: PBM E-score (8-mer binding enrichment) (E-score (-0.5 to 0.5)); higher = stronger / more preferred TF binding
# measurement_context: protein concentration: 200 nM; construct: GST-full length
Over roughly 33,000 sequences, “E-score (-0.5 to 0.5)” has its median near -0.041; the highest 2% begin near 0.37. The full list was thinned out, with the highest values kept by preference.
Exercise: state measured PBM E-score for each of the sequences provided.

>>> df
   chain_sequence  experimental_value
0        CCTTCGTC              0.0674

Hi team, please reply with PBM E-score for each item in this list.
1. CGTTCAAG
2. GGTACAAC
3. GGAGCGAC
4. ATTCTACA
5. ACCGCAGC
6. CCGGACCA

[0.335, 0.0714, 0.339, 0.0155, -0.0492, 0.0404]

* * *

Exercise: state measured PBM E-score for each of the sequences provided.
# target_entity: Ecm22 (UniProt Q05958)
# Sequence: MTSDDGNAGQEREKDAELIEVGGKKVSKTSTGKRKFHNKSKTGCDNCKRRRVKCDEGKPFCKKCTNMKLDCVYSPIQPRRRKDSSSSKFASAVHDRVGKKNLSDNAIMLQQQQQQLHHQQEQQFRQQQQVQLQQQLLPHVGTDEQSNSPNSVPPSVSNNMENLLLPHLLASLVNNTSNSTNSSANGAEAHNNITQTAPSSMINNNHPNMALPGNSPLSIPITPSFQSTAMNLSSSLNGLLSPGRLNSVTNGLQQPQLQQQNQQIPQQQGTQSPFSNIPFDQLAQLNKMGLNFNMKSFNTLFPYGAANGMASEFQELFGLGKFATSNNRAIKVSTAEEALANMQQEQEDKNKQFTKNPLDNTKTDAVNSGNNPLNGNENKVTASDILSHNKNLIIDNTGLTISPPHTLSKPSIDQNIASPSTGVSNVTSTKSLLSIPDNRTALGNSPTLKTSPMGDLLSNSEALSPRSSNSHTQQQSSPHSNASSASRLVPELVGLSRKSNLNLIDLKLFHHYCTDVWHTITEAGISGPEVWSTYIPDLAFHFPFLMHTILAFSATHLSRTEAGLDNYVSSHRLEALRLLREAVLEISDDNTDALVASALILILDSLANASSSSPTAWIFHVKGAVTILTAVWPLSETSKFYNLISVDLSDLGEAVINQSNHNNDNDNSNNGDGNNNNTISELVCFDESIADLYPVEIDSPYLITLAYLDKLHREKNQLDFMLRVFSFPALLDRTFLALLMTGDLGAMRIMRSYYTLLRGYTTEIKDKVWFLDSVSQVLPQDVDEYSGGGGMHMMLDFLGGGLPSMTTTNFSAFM
# assay_protocol: PBM E-score (8-mer binding enrichment) (E-score (-0.5 to 0.5)); higher = stronger / more preferred TF binding
# measurement_context: protein concentration: 200 nM; construct: GST-full length
Over roughly 33,000 sequences, “E-score (-0.5 to 0.5)” has its median near -0.041; the highest 2% begin near 0.37. For the sample, the highest values were picked, then their nearest neighbours and some sequences at random.
Answers are plain numbers.

Worked examples, 2 sequences total:
   chain_sequence  experimental_value
0        ATTAAACG               0.449
1        CGGCGCAG             -0.0964

Hi team, please reply with PBM E-score for each item in this list.
1. ATCTACCC
2. CTTTCGCA

[0.0111, 0.00706]

Hi team, please reply with PBM E-score for each item in this list.
1. GGCGGCGA
2. AAGATACA
3. CCTAAACA
4. ACTAAACC

1: -0.157; 2: -0.046; 3: -0.149; 4: -0.00061

Form entry - test system: Ecm22 (UniProt Q05958); read-out: PBM E-score; sequence: ATTAAACC
-0.0934
